B1: Zinc finger homeobox protein 3, residues 2147 to 2202; numbered along this chain, Q15911 (parent)
chain: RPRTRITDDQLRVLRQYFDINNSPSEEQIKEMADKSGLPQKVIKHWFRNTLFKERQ

- Variants of: B1
- measurement notes: abundance fitness (aPCA) (normalised: wild type 0, dead -1); higher = more abundant; growth selection in yeast, the domain comes from the species named
- test context: Homo sapiens
Let's look at some variants and their measured abundance fitness.

{"residues": "RPRTRITDDQLRVLRQYFDIYNSPSEEQIKEMADKSGLPQKVIKHWFRNTLFKERQ", "abundance fitness": 0.014}
{"residues": "RPRTRITDDQNRVLRQYFDINNSPSEEQIKEMADKSGLPQKVIKHWFRNTLFKERQ", "abundance fitness": -0.019}
{"residues": "RPRTRITDDQLRVLRQYFDCNNSPSEEQIKEMADKSGLPQKVIKHWFRNTLFKERQ", "abundance fitness": 0.1}
{"residues": "RPRTRITDDQLRVLRQYFDINKSPSEEQIKEMADKSGLPQKVIKHWFRNTLFKERQ", "abundance fitness": -0.085}
{"residues": "RPRTRITDDQLRVLRQYFDINNSPSEEQIKEMADKSGLPQKVIVHWFRNTLFKERQ", "abundance fitness": -0.107}

RPRTRITDDQLRVLRQYFDINNSPSEEEIKEMADKSGLPQKVIKHWFRNTLFKERQ has a reported abundance fitness of -0.102

Record RPRTRITDDQLRVLRQYFDINNSPSEEQISEMADKSGLPQKVIKHWFRNTLFKERQ , field abundance fitness: -0.205

Reported abundance fitness ( RPRTRITDDQLRVLRQYFDINNSPSEEQIKEMADKSGLPQKVIKHWFRNTLAKERQ ) = 0.074

Per the record, RPRTRITDDQLRVLRQYFDINNSPSEEQIKEDADKSGLPQKVIKHWFRNTLFKERQ has abundance fitness of -0.466

Briefly, abundance fitness measured for RPRTRITDDQLRVLRQYFDINNSPSEEQIKEMADKSGLPQIVIKHWFRNTLFKERQ : -0.022

get_value(item= RPRTRITDDQLRVLRQYFDINNSPSEEQIKEMADKSGLPQKVIKHWFRNRLFKERQ , readout=abundance fitness) returns -0.068

Reported abundance fitness ( RPRTRITDDQLRVLRQYFDINNFPSEEQIKEMADKSGLPQKVIKHWFRNTLFKERQ ) = -0.025

So, RPPTRITDDQLRVLRQYFDINNSPSEEQIKEMADKSGLPQKVIKHWFRNTLFKERQ ? Its abundance fitness was -0.108

Query RPRTRITDDQLMVLRQYFDINNSPSEEQIKEMADKSGLPQKVIKHWFRNTLFKERQ yields abundance fitness of 0.077
